B1: CLCN6 (parent)
chain: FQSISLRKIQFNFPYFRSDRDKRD

variants of: B1; assay: protein stability index of a GFP-peptide fusion (GPS, HEK-293T) (PSI 1-6); higher = more stable; conditions: c terminus: a fixed tail appended;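 note: lentivirally expressed fusions sorted by FACS into six bins by GFP to DsRed ratio, PSI derived from sequencing read proportions per bin multiplied by bin number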
Use 1 (yes) when the recorded protein stability index is no lower than 2; use 0 (no) when it is lower.

S18H: 0 (no)
P14G: 0 (no)
F11P: 0 (no)
N12D: 0 (no)
I9N: 0 (no)

[ask] Threshold query (protein stability index >= 2) on "F11Y"
[reply] 0 (no)

[ask] Threshold query (protein stability index >= 2) on "D24Q"
[reply] 0 (no)

[ask] Threshold query (protein stability index >= 2) on "I9W"
[reply] 0 (no)
